# TARGET_DESC: Glutathionylspermidine synthase (Crithidia fasciculata, UniProt P90518, C79A)
# Sequence (P90518 whole entry C79A): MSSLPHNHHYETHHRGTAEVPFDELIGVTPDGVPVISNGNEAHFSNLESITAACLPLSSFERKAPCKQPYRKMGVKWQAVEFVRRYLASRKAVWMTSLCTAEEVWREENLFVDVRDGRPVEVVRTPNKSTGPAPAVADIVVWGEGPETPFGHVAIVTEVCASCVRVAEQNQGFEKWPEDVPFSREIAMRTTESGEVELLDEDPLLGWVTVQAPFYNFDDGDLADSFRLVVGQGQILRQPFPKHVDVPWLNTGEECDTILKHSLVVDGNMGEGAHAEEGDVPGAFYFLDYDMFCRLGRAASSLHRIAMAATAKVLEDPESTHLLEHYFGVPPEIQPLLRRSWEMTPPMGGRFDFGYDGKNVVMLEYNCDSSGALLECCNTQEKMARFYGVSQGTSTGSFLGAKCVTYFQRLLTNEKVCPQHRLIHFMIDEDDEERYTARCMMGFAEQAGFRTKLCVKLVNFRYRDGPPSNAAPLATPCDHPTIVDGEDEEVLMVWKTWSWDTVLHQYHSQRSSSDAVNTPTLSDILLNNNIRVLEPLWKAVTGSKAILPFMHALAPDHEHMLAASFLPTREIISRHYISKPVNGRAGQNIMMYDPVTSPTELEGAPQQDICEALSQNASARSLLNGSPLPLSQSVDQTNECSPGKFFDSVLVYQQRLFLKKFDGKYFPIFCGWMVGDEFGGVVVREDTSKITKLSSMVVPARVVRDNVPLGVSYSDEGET
# RUN_DESCRIPTION: Inhibitory activity against amidase free Glutathionylspermidine Synthetase mutant (C79A)
Where a SMILES comes first, the peptide text is derived from it.
MEASURE: IC50 (µM)
Answers are plain numbers, in µM.

Dear colleague, could you please provide IC50 for the compounds listed below?
1. CC(C)C[C@H](NC(=O)CC[C@H](N)C(=O)O)C(=O)NCC(N)=O (HELM PEPTIDE1{[gGlu].L.G.[am]}$$$$V2.0)
2. CC(C)C[C@H](NC(=O)CC[C@H](N)C(=O)O)C(=O)NCC(=O)NO (HELM PEPTIDE1{[gGlu].L.G.[ON[*:1]]}$$$$V2.0)

105
3.2
